Biological target: Neu5Ac(a2-3)Gal(b1-4)GlcNAc(b1-2)Man
Experiment: glycan array binding signal (z-score within array); higher = stronger binding
Settings: glycan notation: IUPAC condensed, linker removed
This excerpt belongs to a sample that is enriched for the strongest signals.
attribute_measured: glycan array binding signal (z-score)
One number for each entry.

What does the record list as glycan array binding signal (z-score) for Pwp4 (Candida glabrata) (protein) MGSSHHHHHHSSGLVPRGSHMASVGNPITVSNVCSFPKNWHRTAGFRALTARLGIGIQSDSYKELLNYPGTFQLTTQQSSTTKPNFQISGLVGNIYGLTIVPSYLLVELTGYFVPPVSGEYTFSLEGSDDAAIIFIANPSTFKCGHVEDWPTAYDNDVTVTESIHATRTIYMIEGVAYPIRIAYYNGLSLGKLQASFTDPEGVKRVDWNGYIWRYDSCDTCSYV ?
-0.174
